Run Description: Test for a Solubility (oil solvents, 1% by weight)
Assay type: physicochemical
Assay Setup: liquid paraffin

Compound: CCCCCCCCCCCCOC(=O)CNCc1ccccc1O [Synthesis Example 3, N-(2-hydroxybenzyl)glycine lauryl ester]
Solubility in liquid paraffin: soluble

Compound: CCCCCCCCCCCCOC(=O)[C@H](Cc1ccccc1)NCc1ccccc1O [Synthesis Example 4]
Solubility in liquid paraffin: soluble

====

Run Description: Test for a Solubility (oil solvents, 1% by weight)
Assay type: physicochemical
Assay Setup: liquid paraffin
Quantity: Solubility in liquid paraffin

Example entries begin here.
Molecule: O=C(O)[C@H](Cc1ccccc1)NCc1ccccc1O [N-(2-hydroxybenzyl)-L-phenylalanine, reference compound]
Solubility in liquid paraffin: insoluble

Molecule: CCCCCCCCCCCCCCCCCCNC(=O)[C@H](C)NCc1ccccc1O [Synthesis Example 6]
Solubility in liquid paraffin: gelling

Molecule: C[C@H](NCc1ccccc1O)C(=O)O [N-(2-hydroxybenzyl)-L-alanine, reference compound]
Solubility in liquid paraffin: insoluble

Molecule: CCCCCCCCCCCCCCCCCCOC(=O)[C@H](C)NCc1ccccc1O [Synthesis Example 2]
Solubility in liquid paraffin: soluble

Molecule: CCCCCCCCCCCCNC(=O)[C@H](C)NCc1ccccc1O [Synthesis Example 5]
Solubility in liquid paraffin: gelling

# input Can you share its Solubility in liquid paraffin? I mean this molecule: CCCCCCCCCCCCOC(=O)[C@H](C)NCc1ccccc1O [Synthesis Example 1]
# output soluble

# input Can you share its Solubility in liquid paraffin? I mean this molecule: CCCCCCCCCCCCNC(=O)CNCc1ccccc1O [Synthesis Example 7, N-(2-hydroxybenzyl)glycine laurylamide]
# output gelling

# input Can you share its Solubility in liquid paraffin? I mean this molecule: CCCCCCCCCCCCNC(=O)[C@H](Cc1ccccc1)NCc1ccccc1O [Synthesis Example 8]
# output gelling
